Test system: Bacillus subtilis
Assay: cleaved RNA product abundance (RNA/gDNA barcode ratio) relative to median wild-type variant (ratio to wild type); higher = more accumulation of the downstream cleavage product
Conditions: experiment (reporter, strain, medium): exp 4a: truncated aprE reporter, strain BJT201 with 2% xylose (RNase J1 expressed); cleavage site: cggR-gapA (positions -7 to +36 mutated)
Respond with T for cleaved RNA product abundance values of 0.6 and above, F for values below.

ACAGACGAAGGAGCCGCAAAAAAGTTATTAAGGGATGAATCATCCCTCAATATAAATATCTCTCACTTATTTAAA
T
ACAGACGAAGGAGCCGCAAAGAAGTTATTAAGGTATGAATAATCCTTCAATATAAATATCTCTCACTTATTTAAA
F
ACAGACGAAGGAGCCGCAGAGAAGTTATTAATGGATGAATAATCCCTCAATATAAATATCTCTCACTTATTTAAA
F

In: Quick check, cleaved RNA product abundance >= 0.6? `ACAGACGAAGGAGCCGCAAAGAATTTATTAAAGGATGAATAATCCCTCAATATAAATATCTCTCACTTATTTAAA`
Out: F

In: Quick check, cleaved RNA product abundance >= 0.6? `ACAGACGAAGGAGCCGCAAGGAAGTTATTAAGGGATGAATAATCCTTCAATATAAATATCTCTCACTTATTTAAA`
Out: F

In: Quick check, cleaved RNA product abundance >= 0.6? `ACAGACGAAGGAGCCGCAAAGAAGTTATTAAGGGATGAATAATCCCATAATATAAATATCTCTCACTTATTTAAA`
Out: T

###

Measured cleaved RNA product abundance by item
Tested on: Bacillus subtilis
Experiment: cleaved RNA product abundance (RNA/gDNA barcode ratio) relative to median wild-type variant (ratio to wild type); higher = more accumulation of the downstream cleavage product
Settings: experiment (reporter, strain, medium): exp 4a: truncated aprE reporter, strain BJT201 with 2% xylose (RNase J1 expressed); cleavage site: cggR-gapA (positions -7 to +36 mutated)
Reply with the value as a number alone.

ACAGACGAAGGAGCCGCAAGGAAGTTATTAAGGGATGAATAATCCCTCAATATACATATCTCTCACTTATTTAAA
0.774
ACAGACGAAGGAGCCGCAAAGAAGTTATTAAGGGATGAACAATCCCTCAACATAAATATCTCTCACTTATTTAAA
0.265

We next turn to a different sequence, shown below.
// recorded cleaved RNA product abundance for `ACAGACGAAGGAGCCGCAAAGAAGTTATAAAGGGATGAATAATCCCTCACTATAAATATCTCTCACTTATTTAAA` : 0.322

###

Test system: Bacillus subtilis
Assay: cleaved RNA product abundance (RNA/gDNA barcode ratio) relative to median wild-type variant (ratio to wild type); higher = more accumulation of the downstream cleavage product
Conditions: experiment (reporter, strain, medium): exp 2b: truncated aprE reporter, strain BJT200; cleavage site: cggR-gapA (positions -7 to +36 mutated)
measuredParameter: cleaved RNA product abundance
Reply with the value as a number alone.

Reference set, count: 3
ACAGACGAAGGAGCCGCAAAGAAGTTATTATGGGATTAATAATCCCTCAATATAAATATCTCTCACTTATTTAAA
0.352
ACAGACGAAGGAGCCGCAAAGAAGATATTAAGGGATGAATAATCCCTCAATAAAAATATCTCTCACTTATTTAAA
0.142
ACAGACGAAGGAGCCGCAAAGAAGCTATTAAGGGATAAATAATCCCTCAATATAAATATCTCTCACTTATTTAAA
0.479

We next turn to a different sequence, shown below.
// recorded cleaved RNA product abundance for `ACAGACGAAGGAGCCGCAAATAAGTTATTAAGGGATGAATAATCCCTCAATATAAATATCTCTCACTTATTTAAA` : 0.972

###

Tested on: Bacillus subtilis
Test: cleaved RNA product abundance (RNA/gDNA barcode ratio) relative to median wild-type variant (ratio to wild type); higher = more accumulation of the downstream cleavage product
Conditions: experiment (reporter, strain, medium): exp 2b: truncated aprE reporter, strain BJT200; cleavage site: cggR-gapA (positions -7 to +36 mutated)
Measured cleaved RNA product abundance by item
Reply with the value as a number alone.

Reference set, count: 2
ACAGACGAAGGAGCCGCAAAGAAGTTATTAAGGGATAAATATTCCCTCAATATAAATATCTCTCACTTATTTAAA
0.755
ACAGACGAAGGAGCCGCAAAGAAGTTATTAAGGGAAGTATAATCCCTCAATATAAATATCTCTCACTTATTTAAA
0.599

// recorded cleaved RNA product abundance for `ACAGACGAAGGAGCCGCAAAGAAGTTATTAAGGGATGAATAATCCTTCAATATACATATCTCTCACTTATTTAAA` : 0.334

// recorded cleaved RNA product abundance for `ACAGACGAAGGAGCCGCAAAGAAATTATTAAGGGGTGAATAATCCCTCAATATAAATATCTCTCACTTATTTAAA` : 0.541

// recorded cleaved RNA product abundance for `ACAGACGAAGGAGCCGCAAAGAAGTTATTAAGGGATGAATAATCCATCAATAGAAATATCTCTCACTTATTTAAA` : 0.0728

// recorded cleaved RNA product abundance for `ACAGACGAAGGAGCCGCAAAGGAGTTATTAAAGGATGAATAATCCCTCAATATAAATATCTCTCACTTATTTAAA` : 0.161

// recorded cleaved RNA product abundance for `ACAGACGAAGGAGCCGCAAAGAAGTTATTAAGGTATGAATAATCCTTCAATATAAATATCTCTCACTTATTTAAA` : 0.145

// recorded cleaved RNA product abundance for `ACAGACGAAGGAGCCGCAAAGAAGTTATTAAGGGATGAATAAACCCACAATATAAATATCTCTCACTTATTTAAA` : 0.143

// recorded cleaved RNA product abundance for `ACAGACGAAGGAGCCGCAAAGAAGTTATTATGGGATCAATAATCCCTCAATATAAATATCTCTCACTTATTTAAA` : 0.23

// recorded cleaved RNA product abundance for `ACAGACGAAGGAGCCGCAAAGAAGTTATTCAGGGATGAATAATCCCTCAATATAAATATCTCTCACTTATTTAAA` : 0.766

// recorded cleaved RNA product abundance for `ACAGACGAAGGAGCCGCAAAGAAGTTATTAAGGAATGAACAATCCCTCAATATAAATATCTCTCACTTATTTAAA` : 0.0794

// recorded cleaved RNA product abundance for `ACAGACGAAGGAGCCGCACAGAAGTTATTAAGGGAAGAATAATCCCTCAATATAAATATCTCTCACTTATTTAAA` : 0.452

###

Test system: Bacillus subtilis
Test: cleaved RNA product abundance (RNA/gDNA barcode ratio) relative to median wild-type variant (ratio to wild type); higher = more accumulation of the downstream cleavage product
Settings: experiment (reporter, strain, medium): exp 6: tetM reporter, strain 168; cleavage site: cggR-gapA (positions -7 to +36 mutated)
Respond with TRUE for cleaved RNA product abundance values of 0.3 and above, FALSE for values below.

ACAGACGAAGGAGCCGCAAAGAAGTTATTAAGGGATGAATAAGCCCTCAATATAAATATCTCTCACTTATTTAAA
TRUE
ACAGACGAAGGAGCCGCAAAGAAGTTATTAGGGGATGAATAATCCCTCAATATAAATATCTCTCACTTATTTAAA
TRUE
ACAGACGAAGGAGCCGCAAAGTAGTTATTAAGGGATGAATAATCCCTCAATATAAATATCTCTCACTTATTTAAA
TRUE

In: Quick check, cleaved RNA product abundance >= 0.3? `ACAGACGAAGGAGCCGCAAAGAAGTTATTAAGTGATAAATAATCCCTCAATATAAATATCTCTCACTTATTTAAA`
Out: FALSE

In: Quick check, cleaved RNA product abundance >= 0.3? `ACAGACGAAGGAGCCGCAAAGAAGTTATTAAGGGATGAATACTCCCTCAATATAAATATCTCTCACTTATTTAAA`
Out: TRUE

In: Quick check, cleaved RNA product abundance >= 0.3? `ACAGACGAAGGAGCCGCAAAGAAGTTATTGAGGGATGAATAATCCCTCAATATAAATATCTCTCACTTATTTAAA`
Out: FALSE

In: Quick check, cleaved RNA product abundance >= 0.3? `ACAGACGAAGGAGCCGCAAAGAAGTTATTAAGGGATGAATAATCCCTCAATATAAATAACTCTCACTTATTTAAA`
Out: TRUE

In: Quick check, cleaved RNA product abundance >= 0.3? `ACAGACGAAGGAGCCGCAAAGAAGTTATTAAGGGATGAATAATCCCTTAATATAAATATCTCTCACTTATTTAAA`
Out: TRUE

In: Quick check, cleaved RNA product abundance >= 0.3? `ACAGACGAAGGAGCCGCAAAGAAGTTATTAAGGGATGAATGATCCCTCAATATAAATATCTCTCACTTATTTAAA`
Out: TRUE

In: Quick check, cleaved RNA product abundance >= 0.3? `ACAGACGAAGGAGCCGCAAAAAAGTTATTAAGAGATGAATAATCCCTCAATATAAATATCTCTCACTTATTTAAA`
Out: FALSE
